I'd appreciate it if you could supply relative viability values for the items below.
Test system: NCI-H1355
Assay: relative viability (nuclei count vs DMSO), 5 days (fraction); higher = more cells survive
Details: first compound 500 µM

O=C(O)CCCCC(CCSCc1ccccc1)SCc1ccccc1 (stereo not given) [CPI-613] + Nc1ncn([C@H]2C[C@H](O)[C@@H](CO)O2)c(=O)n1 [Decitabine] (partner 2 µM) :: 0.114
O=C(O)CCCCC(CCSCc1ccccc1)SCc1ccccc1 (stereo not given) [CPI-613] + C[C@@H](Oc1cc(-c2cnn(C3CCNCC3)c2)cnc1N)c1c(Cl)ccc(F)c1Cl [Crizotinib] (partner 1 µM) :: 0.136
O=C(O)CCCCC(CCSCc1ccccc1)SCc1ccccc1 (stereo not given) [CPI-613] + CC1(C)CCC(c2ccc(Cl)cc2)=C(CN2CCN(c3ccc(C(=O)NS(=O)(=O)c4ccc(N[C@H](CCN5CCOCC5)CSc5ccccc5)c(S(=O)(=O)C(F)(F)F)c4)cc3)CC2)C1 [Navitoclax] (partner 0.5 µM) :: 0.128

Quick one: give me relative viability for each item below, same order please.
1. O=C(O)CCCCC(CCSCc1ccccc1)SCc1ccccc1 (stereo not given) [CPI-613] + CC(=O)Nc1cccc(-n2c(=O)n(C3CC3)c(=O)c3c(Nc4ccc(I)cc4F)n(C)c(=O)c(C)c32)c1 [Trametinib] (partner 0.02 µM)
2. O=C(O)CCCCC(CCSCc1ccccc1)SCc1ccccc1 (stereo not given) [CPI-613] + Cc1nc(NC(=O)N2CCC[C@H]2C(N)=O)sc1-c1ccnc(C(C)(C)C(F)(F)F)c1 [Alpelisib] (partner 2 µM)

Response given:
1. 0.112
2. 0.134
